test system: UO-31 renal; assay: NCI tumour cell line growth inhibition, 48 h
Measured TGI values are reported for all entries that follow.
MEASURED ENDPOINT: TGI

> print(dat)
                                  structure  reported
1  C[n+]1cn(-c2nc3ccccc3nc2[N-]S(=O)(=O)c2ccccc2)c2ccccc21  > 100 µM
2  CC(=O)O[C@H](C[C@H](C(C)C)N(C)C(=O)[C@@H](NC(=O)[C@H]1CCCCN1C)C(C)C)c1cccc(C(=O)N[C@@H](Cc2ccccc2)C[C@H](C)C(=O)O)n1   > 25 µM
3    CCC(=O)Nc1ccc(NCC(=O)Nc2ccc(OC)cc2)cc1  > 100 µM
